- Assay method text: in vitro
- Condition details: human, hela cells, % viability
Observation type: viability at 28.5 h, 10 µM (%)
Reply with just the number (in %).

• O=C(CSc1nnc(-c2cccnc2)n1-c1ccccc1)Nc1cc(C(F)(F)F)ccc1Cl = 90.8

Exercise: I have this compound here, COC1CCN(C2CCc3c(Cl)cc(Cl)cc32)CC1 (stereo not shown) , and I need its recorded viability at 28.5 h, 10 µM.
Key: 90.6

Exercise: Also need CN(Cc1ccccc1)c1nccnc1-c1cccnc1 , thanks.
Key: 93.5

----------
Below, each of the compounds is paired with its reported viability at 28.5 h, 10 µM value.
- Assay method text: in vitro
- Condition details: human, hela cells, % viability
Reply with just the number (in %).

Below, 6 compounds whose answers are already recorded.
- Cc1cc(C)n(C(C)CC(=O)NCc2ccccc2-n2ccnc2)n1 (stereo not shown) [CBK281518]: 84.3
- CC(NC(=O)c1cccc(Oc2ccccc2)c1)c1ccncc1 (stereo not shown) [CBK270327]: 91.3
- CN(C)CCO/N=C(\c1ccccc1)c1ccncc1 [CBK261095G]: 94.2
- Clc1cc2nc(OC3CCCNC3)c(N3CCCC3)nc2cc1Cl (stereo not shown) [CBK113454]: 108
- OCC1CCCN1c1nc(-c2ccc(Oc3ccccc3)cc2)cn2ccnc12 (stereo not shown) [CBK066713]: 100
- CCC(C)(NC(=O)c1ccn(-c2cc(C)ccc2OC)n1)C(=O)OC (stereo not shown) [CBK305282]: 78.7

Exercise: I have this compound here, N#Cc1c(NC(=O)C(=O)NCc2cccnc2)sc2c1CCCC2 [CBK269485] , and I need its recorded viability at 28.5 h, 10 µM.
Key: 91

Exercise: Also need CCCC(=O)NC1CCN(C(=O)c2snnc2CC)CC1 [CBK297744] , thanks.
Key: 97.3

Exercise: Also need O=C(NC(Cc1ccsc1)c1nccs1)C1CCOCC1 (stereo not shown) [CBK282824] , thanks.
Key: 96.4

Exercise: Also need N#CCCCN1CCCN(c2nccc(OCC3COc4ccccc4O3)n2)CC1 (stereo not shown) [CBK083977] , thanks.
Key: 90.2

Exercise: Also need Cc1cc(-c2cnc(N)nc2)cc(C2CCCN(C(=O)COc3c(C)cccc3C)C2)n1 (stereo not shown) [CBK285933] , thanks.
Key: 103
